- Tested on: Plasmodium falciparum
- EXPERIMENT_SUMMARY: Calibr Malaria Delayed Death Assay SOP
- Format: functional, organism-based
- Parameters: scale not given: in the data most compounds retested in dose-response had high values
- CONDITION_INFO: concentration 4.99e-06 (unit not given; other assays of the set use mol/L)
Among all 38,000 compounds or so, about 1,200 (3.2%) showed an effect of 50% or more. The median lay at about -58%. Many of the other results were omitted from the sample, so strong results are more common in it than they were.
In this scheme, each record receives a class according to its Percent Effect; the ranges are low bracket = under -80%, middle bracket = from -80% up to 10%, high bracket = 10% and over

Cn1cc(C(NCCc2ccccn2)c2cccc(F)c2)cn1 (centres undefined) = middle bracket
CC(=O)N(C)C(c1cccc(F)c1)c1ccccn1 (centres undefined) = middle bracket
COc1cccc(C2(C(=O)NC3CCc4nccn4C3)CCCC2)c1 (centres undefined) = high bracket
COc1ccc(C2(C(=O)NC3CCc4nccn4C3)CCCC2)cc1 (centres undefined) = high bracket
CN(C)CCN(C)C[C@@H]1CN(Cc2cccc(O)c2)C[C@@H]1CO = middle bracket
Clc1cccc(C(NCc2ncc[nH]2)c2ccccn2)c1 (centres undefined) = high bracket
CNC(=O)c1cc2c(nc1NCC1CC1)CCN(c1ncccn1)CC2 = middle bracket
O=C(COCC1CC1)Nc1ncccc1I = low bracket
CCN(C)C[C@@H]1CN(S(=O)(=O)c2cccc(Cl)c2)C[C@@H]1CO = high bracket
C=Cc1cccc(CN2C[C@@H](CN(C)CC)[C@@H](CO)C2)c1 = high bracket
CN(C)C(=O)CN1CCC2(COCc3cnc(N4CCOCC4)nc32)C1.O=C(O)C(F)(F)F (centres undefined) = high bracket
COc1ccc2c(c1)OCC(CNC(=O)c1ccc3[nH]nnc3c1)C2 (centres undefined) = middle bracket
CC(C)Cn1ncc(C(=O)NS(=O)(=O)c2ccccc2)c1C1CC1 = low bracket
CCN(C)C[C@@H]1CN(Cc2cccc(O)c2)C[C@@H]1CO = middle bracket
Cc1nccn1-c1ccc(C(C)NCc2ncc[nH]2)cc1 (centres undefined) = middle bracket
COCCN(C)C[C@@H]1CN(C(=O)c2cccc(Cl)c2)C[C@@H]1CO = low bracket
Fc1cccc(C(NCc2ncc[nH]2)c2ccccc2)c1 (centres undefined) = high bracket
O=C(Cn1cc(-c2ccccc2)ncc1=O)NC1CCCCC1 = low bracket
CC(C)(C)c1oc(C(N)=O)cc1CN1CCCCC(N)C1 (centres undefined) = middle bracket
CN(C)[C@H]1CCCCN(Cc2ccccc2Cn2cccn2)C1 = high bracket
COCCNC(=O)N1CCCCC1CNC(=O)Nc1ccccc1 (centres undefined) = low bracket
CN1CCN(C(=O)C2CN(Cc3cc4ccccc4o3)CCN2)CC1 (centres undefined) = low bracket

---

- Test system: Plasmodium falciparum
- EXPERIMENT_SUMMARY: Calibr Malaria Delayed Death Assay SOP
- Assay type: functional, organism-based
- Set-up: scale not given: in the data most compounds retested in dose-response had high values
- CONDITION_INFO: concentration 4.99e-06 (unit not given; other assays of the set use mol/L)
Hit rate of the full screen: of about 38,000 compounds, about 1,200 (3.2%) showed an effect of 50% or more. The median lay at about -58%. The list comes from a sample in which strong results are over-represented; it also holds close analogues and randomly drawn compounds.
Could you please mark t for values of Percent Effect below -40% and f for values at or above it?

Cc1ccc(C(CNCc2ccncc2)N2CCOCC2)s1 (stereo unspecified) = t
Cc1ccc(C(CNCc2cccn2C)N2CCOCC2)s1 (stereo unspecified) = t
CCn1cc(CNCC(c2ccc(C)s2)N2CCOCC2)cn1 (stereo unspecified) = f
CCOC(=O)COc1nc(CC(C)C)c2c(c1C#N)CCC2 = t
CCCn1cc(CNCC(c2ccc(C)s2)N2CCOCC2)cn1 (stereo unspecified) = f
Cc1ccc(C(CNCc2cccnc2)N2CCOCC2)s1 (stereo unspecified) = f
